Some compounds, each annotated with its measured inhibition in vivo at 1 mg/kg.
Tested on: Cavia porcellus
Assay: Antagonistic activity in inhibiting BK-induced bronchoconstriction in guinea pigs by oral administration at 1 mg/kg dose.
Assay type: functional
Response body: numeric value in %, unit text excluded.

smiles-notation	measured-quantity	reported-result
Cc1ccc2cccc(OCc3c(Cl)ccc(-n4cccc4CNC(=O)/C=C/c4ccc(N5CCCC5=O)cc4)c3Cl)c2n1	inhibition in vivo at 1 mg/kg	36

The compound listed as Cc1ccc2cccc(OCc3c(Cl)ccc(N(C)C(=O)CNC(=O)/C=C/c4ccc(/C=C/c5ccncc5)nc4)c3Cl)c2n1 shows inhibition in vivo at 1 mg/kg equal to 87.3

So for Cc1ccc2cccc(OCc3c(Cl)ccc(N(C)C(=O)CNC(=O)/C=C/c4ccc(N5CCCC5=O)cc4)c3Cl)c2n1 , the logged inhibition in vivo at 1 mg/kg turned out to be 85.3

// sample CC(=O)Nc1ccc(/C=C/C(=O)NCc2cccn2-c2ccc(Cl)c(COc3cccc4ccc(C)nc34)c2Cl)cn1 , its inhibition in vivo at 1 mg/kg was 82.1

Form field inhibition in vivo at 1 mg/kg, entry CNC(=O)c1ccc(/C=C/C(=O)NCc2cccn2-c2ccc(Cl)c(COc3cccc4ccc(C)nc34)c2Cl)cc1 : 67.9

---

The following compounds are shown together with reported log10 IC50 values.
Biological target: B2 bradykinin receptor (Cavia porcellus, UniProt O70526)
Sequence (O70526 whole entry): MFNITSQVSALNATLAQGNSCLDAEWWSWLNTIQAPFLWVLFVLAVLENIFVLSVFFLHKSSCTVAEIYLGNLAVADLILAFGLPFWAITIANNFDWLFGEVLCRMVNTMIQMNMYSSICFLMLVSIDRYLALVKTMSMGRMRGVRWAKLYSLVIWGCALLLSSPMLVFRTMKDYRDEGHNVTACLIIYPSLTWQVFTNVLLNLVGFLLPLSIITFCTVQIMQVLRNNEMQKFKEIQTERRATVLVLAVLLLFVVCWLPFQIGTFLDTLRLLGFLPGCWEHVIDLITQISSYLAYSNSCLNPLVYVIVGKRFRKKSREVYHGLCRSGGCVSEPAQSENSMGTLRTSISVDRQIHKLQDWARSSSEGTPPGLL
Assay: Inhibition of the specific binding of [3H]BK to Bradykinin receptor B2 in guinea pig ileum membrane preparations
A value of 2 here means IC50 of 100 in nM, since values are log10.

// known answers, use as guide
smiles-notation	log10 IC50
CNC(=O)c1ccc(/C=C/C(=O)NCC(=O)N(C)c2ccc(Cl)c(COc3cccc4ccc(C)nc34)c2)cc1	0.71
CNC(=O)c1ccc(/C=C/C(=O)NCc2sccc2-c2ccc(C)c(COc3cccc4ccc(C)nc34)c2C)cc1	0.45
CNC(=O)c1ccc(/C=C/C(=O)NCC=Cc2ccc(Cl)c(COc3cccc4ccc(C)nc34)c2Cl)cc1	2.34
CNC(=O)c1ccc(/C=C/C(=O)NCc2cccn2-c2ccc(Cl)c(COc3cccc4ccc(C)nc34)c2Cl)cc1	-0.19

Measured log10 IC50 of CC(=O)Nc1ccc(/C=C/C(=O)NCC(=O)Nc2ccc(Cl)c(COc3cccc4ccc(C)nc34)c2Cl)cn1 : 2.45

---

Target: B2 bradykinin receptor (Homo sapiens, UniProt P30411)
Sequence (P30411 whole entry): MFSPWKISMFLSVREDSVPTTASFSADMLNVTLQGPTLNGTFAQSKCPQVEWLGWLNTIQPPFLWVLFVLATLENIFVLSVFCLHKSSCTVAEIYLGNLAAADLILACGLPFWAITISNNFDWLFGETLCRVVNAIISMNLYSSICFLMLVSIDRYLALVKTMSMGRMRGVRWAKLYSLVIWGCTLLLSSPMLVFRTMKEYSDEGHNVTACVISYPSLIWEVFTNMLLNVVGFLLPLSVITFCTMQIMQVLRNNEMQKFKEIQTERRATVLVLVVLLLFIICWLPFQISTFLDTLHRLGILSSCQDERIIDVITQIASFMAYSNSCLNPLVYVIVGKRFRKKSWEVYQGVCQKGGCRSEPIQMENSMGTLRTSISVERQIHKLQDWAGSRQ
Test: Inhibition of the specific binding of [3H]BK to human recombinant Bradykinin receptor B2 expressed in CHO cells.
measured-quantity: log10 IC50 (log10 of the value in nM)
Log scale reminder: IC50 in nM, then log10 taken.

Consider the reported log10 IC50 for these molecules:
smiles-notation	log10 IC50
CNC(=O)c1ccc(/C=C/C(=O)NCc2cccn2-c2ccc(Cl)c(COc3cccc4ccc(C)nc34)c2Cl)cc1	-0.59
CNC(=O)c1ccc(/C=C/C(=O)NC/C=C\c2ccc(Cl)c(COc3cccc4ccc(C)nc34)c2Cl)cc1	1.15
CNC(=O)c1ccc(/C=C/C(=O)NCC=Cc2ccc(Cl)c(COc3cccc4ccc(C)nc34)c2Cl)cc1	2.85
CNC(=O)c1ccc(/C=C/C(=O)NCC(=O)N(C)c2cccc(COc3cccc4ccc(C)nc34)c2C)cc1	2.18
Cc1ccc2cccc(OCc3c(Cl)ccc(-n4cccc4CNC(=O)/C=C/c4ccc(N5CCCC5=O)cc4)c3Cl)c2n1	-0.39
Cc1ccc2cccc(OCc3c(Cl)ccc(N(C)C(=O)CNC(=O)/C=C/c4ccc(/C=C/c5ccncc5)nc4)c3Cl)c2n1	-0.29
Cc1ccc2cccc(OCc3c(Cl)ccc(N(C)C(=O)CNC(=O)/C=C/c4ccc(N5CCCC5=O)cc4)c3Cl)c2n1	0.51

Now for the molecule whose log10 IC50 we want.
Sample CNC(=O)c1ccc(/C=C/C(=O)NCC(=O)N(C)c2ccc(OC)c(COc3cccc4ccc(C)nc34)c2OC)cc1 ; log10 IC50 observed: 2.32
